Target or test system: DLG2_2, Q15700
Sequence (Q15700 189-283): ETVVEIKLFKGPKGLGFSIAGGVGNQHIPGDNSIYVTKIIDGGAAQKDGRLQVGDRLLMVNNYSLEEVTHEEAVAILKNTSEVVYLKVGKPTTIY
Experimental protocol: holdup assay
Set-up: key: below the threshold = too weak to quantify, mostly under pKd 3.1 to 4
Condition context: plain residues with an end cap or a label only (N-terminal biotin on a linker: ahx)

>  <Binder>
NRKREIFSNF [NHERF2, Q15599]

>  <pKd>
below the threshold

$$$$
>  <Binder>
GYDWGPATDL [TJP3, O95049]

>  <pKd>
below the threshold

$$$$
>  <Binder>
PSASCAVTAA [PDLIM4, P50479;P50479-2]

>  <pKd>
below the threshold

$$$$
